The reader will find reported log10 IC50 values listed item by item below.
assayed system: A*6802 (Homo sapiens, UniProt P04439, A269V/D140Y/D185E/E176V/E277Q/E87N/F33Y/G231S/I121R/I166T/I218V/L180W/L300P/L318F/N151K/P208A/P217A/Q86R/R138H/R169H/S129P/T345S/V36M)
method description: biochemical
Type: binding
No end group written: not given here.
# values: log10(IC50), units µM

Reference set, count: 3
- primary sequence: "FQGSVISFV [Peptide 1578.38]"
  log10 IC50: -0.25
- primary sequence: "RLQLSNGNRTV [Peptide 9013.0328]"
  log10 IC50: 0.68
- primary sequence: "TAKLTIESV [Peptide 9013.0009]"
  log10 IC50: -0.61

Input line: Request the reported log10 IC50 associated with VLYGPDAPV [Peptide 9013.0052]
Output line: 0.51

Input line: Request the reported log10 IC50 associated with RLIIGYVIGT [Peptide 9013.0140]
Output line: 1.16

Input line: Request the reported log10 IC50 associated with TVELFIPNITV [Peptide 9013.0300]
Output line: -0.71

Input line: Request the reported log10 IC50 associated with YACFVSNLAV [Peptide 9013.0248]
Output line: -1.02

Input line: Request the reported log10 IC50 associated with MTANPPIPV [Peptide 1539.01]
Output line: -2.70

Input line: Request the reported log10 IC50 associated with EVLLLVHNV [Peptide 9013.0021]
Output line: -2.52

----------
assayed system: DR7 (DRB1*0701) (Homo sapiens, UniProt P01903+P01911, A100R/A102G/A103Q/D57E/D86V/E43K/F76Y/K127E/L162R/M171V/P40G/Q125H/Q99D/R33Q/R42Y/R54Q/S133A/S66F/T210M/V115G/Y107V/Y59L/Y89S)
method description: biochemical
Assay type: binding
No end group written: not given here.
measurement name: pIC50
# pIC50 = -log10(concentration in molar units)

Reference set, count: 2
- primary sequence: "ISEVYGDTPEWIQRQ [Peptide 90.0035]"
  pIC50: 5.16
- primary sequence: "PTGCLKKHGYTVEVQ [Peptide 1601.23]"
  pIC50: 5.64

From here, focus on the item given below.
Input line: Request the reported pIC50 associated with DPRWPYLHSRLVVFH [Peptide 89.0113]
Output line: 7.05

----------
The reader will find reported IC50 values listed item by item below.
assayed system: A*0203 (Homo sapiens, UniProt P04439, A173T/D140Y/D185E/D98H/E277Q/G131W/G231S/I119V/I121R/I166T/I218V/L180W/L300P/L318F/N151K/N90K/P208A/P217A/Q86G/Q94H/R138H/R169H/T345S)
method description: biochemical
Format: binding
No end group written: not given here.
Give the value, in units of nM, as a plain number.

Reference set, count: 6
- primary sequence: "TLQATPGPA [Peptide 9013.0028]"
  unit annotation: "nM"
  recorded number: 29
- primary sequence: "PLYSWRINGI [Peptide 9013.0236]"
  unit annotation: "nM"
  recorded number: 14
- primary sequence: "FLQSTQELFI [Peptide 9013.0179]"
  unit annotation: "nM"
  recorded number: 59
- primary sequence: "RMLQQLLFT [Peptide 1525.17]"
  unit annotation: "nM"
  recorded number: 493
- primary sequence: "RMLQQLLFV [Peptide 1525.16]"
  unit annotation: "nM"
  recorded number: 6.8
- primary sequence: "TVESTPFNV [Peptide 9013.0013]"
  unit annotation: "nM"
  recorded number: 6160

Input line: Request the reported IC50 associated with RILQQLLFV [Peptide 1525.09]
Output line: 60

Input line: Request the reported IC50 associated with GLTVGIMIGVL [Peptide 9013.0343]
Output line: 290

Input line: Request the reported IC50 associated with KLTPLCVIL [Peptide 1516.15]
Output line: 968

Input line: Request the reported IC50 associated with IIYPNASLV [Peptide 9013.0029]
Output line: 4

Input line: Request the reported IC50 associated with FQYAQLADV [Peptide 1578.36]
Output line: 12

Input line: Request the reported IC50 associated with IQNDTGFYTV [Peptide 9013.0149]
Output line: 31

Input line: Request the reported IC50 associated with RMLQHLLFI [Peptide 1545.04]
Output line: 4

----------
assayed system: A*0203 (Homo sapiens, UniProt P04439, A173T/D140Y/D185E/D98H/E277Q/G131W/G231S/I119V/I121R/I166T/I218V/L180W/L300P/L318F/N151K/N90K/P208A/P217A/Q86G/Q94H/R138H/R169H/T345S)
method description: biochemical
Format: binding
No end group written: not given here.
The reader will find reported log10 IC50 values listed item by item below.
# values: log10(IC50), units nM

Reference set, count: 3
- primary sequence: "ALYWFRTAM [Peptide 86.0195]"
  log10 IC50: 2.33
- primary sequence: "LLLTASLLV [Peptide 9013.0002]"
  log10 IC50: 2.47
- primary sequence: "QLSNGNRTLV [Peptide 9013.0229]"
  log10 IC50: 2.16

Input line: Request the reported log10 IC50 associated with LLIESTPFNVA [Peptide 9013.0268]
Output line: 0.54

Input line: Request the reported log10 IC50 associated with ILYPNASLLI [Peptide 9013.0145]
Output line: 0.45

Input line: Request the reported log10 IC50 associated with ILYAHIQCL [Peptide 1578.08]
Output line: 1.00

Input line: Request the reported log10 IC50 associated with WLNGQSLPV [Peptide 9013.0090]
Output line: 0.81

Input line: Request the reported log10 IC50 associated with LIQPFILYA [Peptide 1578.07]
Output line: 1.66

Input line: Request the reported log10 IC50 associated with QLSNGNRTLTV [Peptide 9013.0334]
Output line: 2.56

----------
assayed system: A31 (A*3101) (Homo sapiens, UniProt P04439, A270S/D185E/E176V/E277Q/F33T/G231S/G80R/H175R/I121M/I218V/I322F/K168Q/L300P/L318F/M331R/P217A/Q94H/R138Q/T323A/T345S/T97I/V358M)
method description: biochemical
Assay type: binding
No end group written: not given here.
Please respond with t when measured IC50 is strictly beneath 300 nM, and with f in all other cases.

Below are worked cases with known answers.
- primary sequence: "GSLQYLALK [Peptide 9017.0096]"
  assigned category: "t"
- primary sequence: "VTIKIGGQIK [Peptide 1516.02]"
  assigned category: "f"
- primary sequence: "LQMALETLSK [Peptide 88.0214]"
  assigned category: "f"

Input line: For KQIVMFLRY [Peptide 88.0330] , is the recorded IC50 below the cut-off of 300 nM?
Output line: f

----------
assayed system: HLA-A*0201 (HLA-A2.1) (Homo sapiens, UniProt P04439, D140Y/D185E/D98H/E176V/E277Q/G131W/G231S/I119V/I121R/I166T/I218V/L300P/L318F/N151K/N90K/P208A/P217A/Q86G/Q94H/R138H/R169H/T345S)
method description: biochemical
Assay type: binding
No end group written: not given here.
measurement name: IC50 (nM)
Give the value, in units of nM, as a plain number.

Reference set, count: 5
- primary sequence: "RLENAILFTA [Peptide 1578.51]"
  unit annotation: "nM"
  IC50: 2150
- primary sequence: "SLLTFWNPPV [Peptide 9013.0118]"
  unit annotation: "nM"
  IC50: 208
- primary sequence: "QQIEFVSFL [Peptide 1578.16]"
  unit annotation: "nM"
  IC50: 19
- primary sequence: "ILYPNASLL [Peptide 9013.0030]"
  unit annotation: "nM"
  IC50: 130
- primary sequence: "ILYPNASLLI [Peptide 9013.0145]"
  unit annotation: "nM"
  IC50: 88

Input line: Request the reported IC50 associated with RLQLSNGNRV [Peptide 9013.0224]
Output line: 17600

Input line: Request the reported IC50 associated with TIESTPFNVV [Peptide 9013.0130]
Output line: 15600

----------
assayed system: DRB1*1302 (Homo sapiens, UniProt P01903+P01911, A100E/A169T/K41T/L162R/M171V/P40S/Q125H/Q178H/Q39Y/Q99D/R42S/S66N/T262R/V115G/W38E/Y61H)
Sequence (P01903 26-254 limits assumed, other chains not shown): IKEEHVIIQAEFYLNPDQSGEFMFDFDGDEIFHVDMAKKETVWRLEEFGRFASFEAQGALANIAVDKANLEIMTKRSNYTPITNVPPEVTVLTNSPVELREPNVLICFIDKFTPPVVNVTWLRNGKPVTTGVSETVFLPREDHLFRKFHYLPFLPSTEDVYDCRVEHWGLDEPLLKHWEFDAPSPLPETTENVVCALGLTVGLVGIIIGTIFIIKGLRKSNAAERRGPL
method description: biochemical
Type: binding
No end group written: not given here.
The reader will find reported IC50 values listed item by item below.

- primary sequence: "AFQVIELQMALETLN [Peptide 90.0024]"
  measurement name: "IC50"
  result: "89 nM"
- primary sequence: "ETHMVIEPPKLRSAT [Peptide 89.0103]"
  measurement name: "IC50"
  result: "1460 nM"
- primary sequence: "NSIFDFGEMVQWAYD [Peptide 89.0106]"
  measurement name: "IC50"
  result: "532 nM"
- primary sequence: "YFKYFKEDAAKYSKT [Peptide 90.0205]"
  measurement name: "IC50"
  result: "> 20000 nM"

Input line: Request the reported IC50 associated with FKKFLKGIPKKSCML [Peptide 89.0073]
Output line: 2660 nM

Input line: Request the reported IC50 associated with CTLVAGEVDYVGLYY [Peptide 90.0252]
Output line: 714 nM

Input line: Request the reported IC50 associated with PEWIQRLTIIQHGID [Peptide 89.0031]
Output line: 558 nM
